# Test system: LOX IMVI
# procedure text: NCI tumour cell line growth inhibition, 48 h
Activity calls are given as the source filed them. No stated cut-off is given here; in the data, active = GI50 up to about 1.1 µM and inactive = higher.
measured endpoint: GI50

>>> df
                                    compound       endpoint_value
 0  Cc1nnc2n1-c1ccccc1C(=S)N1CSCC21 (configuration not stated)  > 100 µM (inactive)
 1          c1ccc(C2=NCCc3cc4c(cc32)OCO4)cc1  > 100 µM (inactive)
 2  O=[N+]([O-])c1ccccc1S(=O)(=O)c1cc(O)cc2c1NCCC2   14.2 µM (inactive)
 3  COC(=O)c1nc(-c2ccc(Cl)c(Cl)c2)nc2ccccc12  > 100 µM (inactive)
 4  N=C1NC2(O)C(=O)c3ccccc3C2(O)N1 (configuration not stated)  > 100 µM (inactive)
 5  CC(Cc1ccc(O)cc1)NCC(O)c1ccc(O)c(O)c1 (configuration not stated)  > 100 µM (inactive)
 6  C/C=C/C1=CC(=O)C(O)C1O (configuration not stated)   16.5 µM (inactive)
 7     Cc1ccc(Nc2[nH]c(=O)[nH]c(=O)c2C)cc1Cl  > 100 µM (inactive)
 8         O=[N+]([O-])c1cccnc1NCC1(CO)CCCC1   16.7 µM (inactive)
 9  O=C(Nc1cc(Cl)ccc1Cl)c1cc2cccc(Cl)c2oc1=O  > 100 µM (inactive)
10   Cc1csc(/N=C(/NCCN2CCOCC2)Nc2nc(C)cs2)n1  > 100 µM (inactive)
11  CC12CCC(=O)N1c1cccnc1N2 (configuration not stated)  > 100 µM (inactive)

###

# System: OVCAR-3
# procedure text: NCI tumour cell line growth inhibition, 48 h
Activity calls are given as the source filed them. No stated cut-off is given here; in the data, active = GI50 up to about 1.1 µM and inactive = higher.
Labels: y (active), n (inactive)

compound	group label
COc1ccc(/C=C2\CCCc3ccccc3C2=O)cc1	y
CN1CC2=C(OC(N)=C(C#N)C2c2cccs2)/C(=C/c2cccs2)C1 (stereo unspecified)	n
O=C1C=Cc2c(Br)sc(Br)c21	n
O=C(c1ccc(Cl)cc1)N(C(=S)N1CCN(c2ccccn2)CC1)c1ccccc1	n
COc1cc(/C=C2\CCC/C(=C\c3cc(OC)c(O)c(OC)c3)C2=O)cc(OC)c1O	y
COc1ccc(Cl)cc1NC(=O)O/N=C(\Cl)C(C)C	n
Cc1nnc2n1-c1ccccc1C(=S)N1CSCC21 (stereo unspecified)	n
COC(=O)CCCc1ccc2c(c1)CC1(C2)Cc2cc3c(cc2C1)CCCC3	n
CCOC(=O)Nc1cc2ccccc2c(/N=N/c2ccccc2)c1O	n
O=c1[nH]nc(Cc2ccc([N+](=O)[O-])cc2)[nH]1	n
O=C1CSC(c2c[nH]c3ccccc23)N1c1ccc(Cl)cc1Cl (stereo unspecified)	n
CCN1CCC(O)(c2ccc(Cl)c(Cl)c2)C(C(=O)c2ccc(Cl)c(Cl)c2)C1 (stereo unspecified)	n
Cc1ccc(S(=O)(=O)N2c3ccccc3[C@H]3CCc4c([nH]c5ccccc45)[C@H]32)cc1	n
O=C1C=CC2(C=C1)O[C@H](COCc1ccccc1)[C@@H](COCc1ccccc1)O2	n
CSc1nc(Cl)c2c(n1)Sc1nc3ccccc3n1N=C2	n
O=C(NC1C=CCC2C(=O)N(c3ccccc3)C(=O)C12)OCc1ccccc1 (stereo unspecified)	n
COC1C(OC(=O)c2ccc(C)[nH]2)C(O)C(Oc2ccc3c(O)c(NC(=O)c4c[nH]c(C(=O)Nc5c(O)c6ccc(OC7OC(C)(C)C(OC)C(OC(=O)c8ccc(C)[nH]8)C7O)c(C)c6oc5=O)c4C)c(=O)oc3c2C)OC1(C)C (stereo unspecified)	n
CC(=O)OC1CC2(C)OC(Cc3ccccc32)O1 (stereo unspecified)	n
N=C1OC(c2ccc3c(c2)OCO3)C(NNS(=O)(=O)c2ccccc2)=C1O (stereo unspecified)	n
CC1=Nc2ccccc2S(=O)(=O)N1	n
COc1ccc(N2C(=O)CC(c3c[nH]c4ncccc34)C2=O)cc1 (stereo unspecified)	n

Value source: ChEMBL document CHEMBL1201862
